Listed below: IC50 values for each entry.
# Test system: HepG2
# assay_info: Antiproliferative activity against human HepG2 cells assessed as reduction in cell viability incubated for 24 hrs by MTT assay
# Type: functional, cell-based
# setup_conditions: HepG2, 24 h
Give your result in µM as a bare value.

{"compound": "C/C=C/C=C/C(=O)O[C@H]1C=CC(=O)[C@]2(C)[C@H]3CC[C@]4(C)C([C@H](C)[C@H]5CC(C)=C(C)C(=O)O5)=C[C@H](OC(C)=O)[C@@]4(O)[C@@H]3C[C@H]3O[C@]132", "unit_symbol": "µM", "numeric_value": 1.52}

Query: Need IC50 of CC(=O)O[C@H]1C=C([C@H](C)[C@H]2CC(C)=C(C)C(=O)O2)[C@@]2(C)CC[C@H]3[C@@H](C[C@H]4O[C@]45[C@@H](OC(=O)C4CCCN4C(=O)OC(C)(C)C)C=CC(=O)[C@]35C)[C@]12O (stereo not given in full) , thanks.
Result: 1.06

Query: Report IC50 for CC(=O)O[C@H]1C=C([C@H](C)[C@H]2CC(C)=C(C)C(=O)O2)[C@@]2(C)CC[C@H]3[C@@H](C[C@H]4O[C@]45[C@@H](OC(=O)C(NC(=O)OC(C)(C)C)C(C)C)C=CC(=O)[C@]35C)[C@]12O (stereo not given in full) please.
Result: 1.57

###

# Tested on: L02
# assay_info: Cytotoxicity against human L02 cells assessed as cell viability incubated for 24 hrs by MTT assay
# Assay type: cell-based
# setup_conditions: L02, 24 h
readout_name: IC50

These solved cases illustrate the format of a correct answer.
{"query_smiles": "CC(=O)O[C@H]1C=C([C@H](C)[C@H]2CC(C)=C(C)C(=O)O2)[C@@]2(C)CC[C@H]3[C@@H](C[C@H]4O[C@]45[C@@H](O)C=CC(=O)[C@]35C)[C@]12O", "IC50": "8.21 µM"}
{"query_smiles": "CC(=O)O[C@H]1C=C([C@H](C)[C@H]2CC(C)=C(C)C(=O)O2)[C@@]2(C)CC[C@H]3[C@@H](C[C@H]4O[C@]45[C@@H](OC(=O)/C=C/C(=O)N(C)C)C=CC(=O)[C@]35C)[C@]12O", "IC50": "5.25 µM"}

Query: Could you share which IC50 value was measured for O=c1c(O)c(-c2cc(O)c(O)c(O)c2)oc2cc(O)cc(O)c12 ?
Result: > 20 µM

###

# assay_info: Inhibition of TrxR in human HT-29 cells incubated for 90 mins in presence of insulin, NADPH and Trx by DTNB reagent based assay
# Type: cell-based
pIC50: −log10 of the molar value.
Kindly return Met if reported pIC50 is no lower than 6; return Not met if it is lower.

{"query_smiles": "CC(=O)O[C@H]1C=C([C@H](C)[C@H]2CC(C)=C(C)C(=O)O2)[C@@]2(C)CC[C@H]3[C@@H](C[C@H]4O[C@]45[C@@H](O)C=CC(=O)[C@]35C)[C@]12O", "group_label": "Not met"}

Query: # check: pIC50 of C=CC(=O)O[C@H]1C=CC(=O)[C@]2(C)[C@H]3CC[C@]4(C)C([C@H](C)[C@H]5CC(C)=C(C)C(=O)O5)=C[C@H](OC(C)=O)[C@@]4(O)[C@@H]3C[C@H]3O[C@]132 is greater than or equal to 6
Result: Not met

Query: Tell me whether pIC50 is at least 6 here: CC(=O)O[C@H]1C=C([C@H](C)[C@H]2CC(C)=C(C)C(=O)O2)[C@@]2(C)CC[C@H]3[C@@H](C[C@H]4O[C@]45[C@@H](OC(=O)CCC(=O)N(C)C)C=CC(=O)[C@]35C)[C@]12O
Result: Not met

Query: Hello, I need to know if O=c1c(O)c(-c2cc(O)c(O)c(O)c2)oc2cc(O)cc(O)c12 has measured pIC50 not below 6. Thanks!
Result: Met
